target: Calmodulin-1 (Homo sapiens); assay: CALM1 binders on microarrays, EGTA buffer, profiling panel, biochemical, small-molecule microarray, Cy5-labelled CALM1 (AID 1111); conditions: Cy5-CALM1 binding fluorescence, higher = more signal;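 note: labelled calmodulin applied in Tris saline Tween buffer holding calcium plus EGTA and DTT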
metric: composite z-score

COc1ccc(OC[C@@H]2CC3[C@@H](c4ccc(Br)cc4)[C@H](C)CC[C@H]3C(=O)O2)cc1 (some centres undefined) = -0.991
CCN1C(=O)[C@H]2[C@H]3[C@H](O)[C@H](O)CC(=NOCC(C)C)[C@H]3CC[C@H]2C1=O = -0.185
CCN1C(=O)[C@H]2[C@H]3[C@H](O)[C@H](O)CC(=NOCC[C@@H]4C=C[C@H](OC(C)=O)[C@@H](COC(C)=O)O4)[C@@H]3CC[C@H]2C1=O = -0.207

**Query** What does the record list as composite z-score for CCOC(=O)[C@H](CC(C)C)NC(=O)CCC1CC(OC(=O)NCc2ccc3c(c2)OCO3)CC2(CCCC(COC(=O)NCc3ccccc3)O2)O1 (some centres undefined) ?
**Result** 0.562

* * *

z-score listing for selected compounds.
assay: E. coli DRC41 culture turbidity changes, primary screen, E. coli filamentation inducer project, strain DRC41, OD650, 48 h (AID 1152);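 note: E. coli MC1000 strain DRC41 lacking acrAB efflux pump and sulA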; settings: E. coli DRC41 (acrAB sulA), higher = more signal, called active from +8 up or from −8 down
Please give only the number in your answer, with no unit.

Consider the reported z-score for these compounds:
CN1CCc2nc(-c3ccccc3)c(-c3ccccc3)cc2C1 = 0.67
C=CC[C@@H]1C=C[C@H](ON=C2C[C@@H](O)[C@@H](O)[C@@H]3[C@@H]4C(=O)N(CC)C(=O)[C@@H]4CC[C@@H]23)[C@@H](CO)O1 = -0.887
CON=C(C)CCN1CCCCc2nc(C)c(C)cc21 = -1.23
CC(=O)OC[C@H]1O[C@H](CC=NO[C@H](C)c2cn([C@@H]3COC[C@H]3O)nn2)C=C[C@@H]1OC(C)=O = -0.676
CC(C)=NOC(C)CN1CCCc2nc(C)c(C)cc21 (stereo not given) = -0.477

**Query** What does the record list as z-score for CC(C)CON=C1C[C@@H](O)[C@@H](O)[C@@H]2[C@@H]3C(=O)N(c4ccc(F)cc4F)C(=O)[C@@H]3CC[C@@H]12 ?
**Result** -0.177

**Query** What does the record list as z-score for COC(=O)[C@H](C)NC(=O)CCC1CC(OC(=O)NCc2ccc3c(c2)OCO3)CC2(CCCC(COC(=O)NCCC(C)C)O2)O1 (stereo not given in full) ?
**Result** -1.06

**Query** What does the record list as z-score for COC(=O)[C@H](C)NC(=O)CCC1CC(OC(=O)NCc2cccc3ccccc23)CC2(CCCC(COC(=O)NCCC(C)C)O2)O1 (stereo not given in full) ?
**Result** 0.782

**Query** What does the record list as z-score for CON(C)C(=O)c1nnc2c(n1)[nH]c1ccccc12 ?
**Result** -0.398

**Query** What does the record list as z-score for CC#CCOCCC=C1c2ccccc2[C@@H](OC)[C@@H]1C ?
**Result** 0.673

**Query** What does the record list as z-score for O=C1[C@H]2[C@H]3[C@H](O)[C@H](O)CC(=NOCc4ccccc4)[C@H]3CC[C@H]2C(=O)N1C1CCCCC1 ?
**Result** -0.135

**Query** What does the record list as z-score for CO[C@@H]1COC(=O)[C@H](CCSC)NC(=O)CC=C[C@@H](C)COC(=O)[C@@H]2CCCN2C(=O)CC=C[C@H]1C ?
**Result** -0.785

**Query** What does the record list as z-score for COC(=O)C1=C(C)N(Cc2ccccc2)C2=C3C(=O)OCC[C@@H]3[C@@](O)(C(=O)OC)C(=O)N2[C@@H]1c1ccccc1 ?
**Result** 0.884

* * *

assay: fission yeast growth modulation, primary screen, strain 972, OD600, 24 h, no modulator (AID 1090);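 note: basal condition with compound alone and no growth modifier present; test concentration not given here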; settings: S. pombe 972 growth, higher = more signal, called active from +8 up or from −8 down
metric: z-score
Please give only the number in your answer, with no unit.

Consider the reported z-score for these compounds:
CO[C@H]1COC(=O)CC=C[C@@H](C)COC(=O)[C@H]2CCCN2C(=O)CC=C[C@H]1C = -0.74
CO[C@H]1COC(=O)CCC[C@H](C)[C@@H](OC)COC(=O)CC=C[C@@H]1C = 0.197
CCOC(=O)CCN1C(=O)[C@H]2[C@H]3[C@H](O)[C@H](O)CC(=NO[C@@H]4O[C@H](CO)[C@@H](O)[C@H](O)[C@H]4O)[C@@H]3CC[C@H]2C1=O = -0.664

Please examine the following record next.
**Query** What does the record list as z-score for CO[C@H]1COC(=O)CC=C[C@H](C)[C@H](OC)COC(=O)[C@@H](C)NC(=O)CC=C[C@@H]1C ?
**Result** -0.391

* * *

test: HepG2 cell viability effects, profiling panel, calcein-AM fluorescence, 48 h, basal (AID 1164); details: higher = more signal; note: test concentration not given here
metric: z-score
Please give only the number in your answer, with no unit.

Consider the reported z-score for these molecules:
O=C1[C@H]2[C@H]3[C@H](O)[C@H](O)CC(=NO[C@@H]4O[C@H](CO)[C@@H](O)[C@H](O)[C@H]4O)[C@@H]3CC[C@H]2C(=O)N1C1CCCCC1 = 0.521
C#CCCCON=C1[C@H]2CCn3c(=O)n([C@@H](CC)c4ccccc4)c(=O)n3[C@H]2[C@H](O)[C@@H]2O[C@H]12 = -0.129
CCCC[C@H]1CN2[C@@H](CC[C@@H](C)[C@@H]2c2ccc(Br)cc2)C(=O)O1 = -0.189
CC(=O)OC[C@H]1O[C@H](CCON=C(C)CCN2CCCc3nc(C)c(C)cc32)C=C[C@@H]1OC(C)=O = -0.667
CCN1C(=O)[C@H]2[C@H]3[C@H](O)[C@H](O)CC(=NOCC[C@@H]4C=C[C@H](OC(C)=O)[C@@H](COC(C)=O)O4)[C@@H]3CC[C@H]2C1=O = -0.296

**Query** What does the record list as z-score for CCCNC(=O)OC[C@H]1O[C@H](CCON=C2C[C@@H](O)[C@@H](O)[C@@H]3[C@@H]4C(=O)N(CC)C(=O)[C@@H]4CC[C@@H]23)C=C[C@@H]1Oc1ccc(OC)cc1 ?
**Result** -0.652

**Query** What does the record list as z-score for CC(C)=NO[C@H](C)c1cn([C@@H]2COC[C@H]2O)nn1 ?
**Result** 0.818

* * *

z-score listing for selected compounds.
assay: E. coli acrAB mutant growth effects, primary screen, E. coli filamentation inducers, strain DRC39, OD650, 24 h (AID 1178); conditions: higher = more signal, called active from +8 up or from −8 down;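 note: growth measured as culture turbidity by optical density at 650 nm; test concentration not given here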
Please give only the number in your answer, with no unit.

CCOC(=O)[C@H](Cc1ccccc1)NC(=O)CCC1CC(OC(=O)NCc2cccc3ccccc23)CC2(CCCC(COC(=O)NCc3ccc4c(c3)OCO4)O2)O1 (some centres not stated) = 1.56
CC1(C)O[C@H]2OC([C@H](O)CON3C(=O)c4ccccc4C3=O)[C@H](O)[C@H]2O1 (some centres not stated) = 0.345
O=C1[C@H]2[C@H]3[C@H](O)[C@H](O)CC(=NOC[C@@H](O)COCc4ccco4)[C@@H]3CC[C@H]2C(=O)N1C1CCCCC1 = 0.326
CC(C)CON=C1C[C@@H](O)[C@@H](O)[C@@H]2[C@@H]3C(=O)N(Cc4ccc5c(c4)OCO5)C(=O)[C@@H]3CC[C@@H]12 = 0.146
CCN1C(=O)[C@H]2[C@H]3[C@H](O)[C@H](O)CC(=NNC(=O)OCc4ccccc4)[C@H]3CC[C@H]2C1=O = -0.47
CCOC(=O)[C@H](Cc1ccccc1)NC(=O)CCC1CC(OC(=O)NCc2ccc3c(c2)OCO3)CC2(CCCC(COC(=O)NCCOc3ccccc3)O2)O1 (some centres not stated) = 0.662

Please examine the following record next.
**Query** What does the record list as z-score for CC(CCC(=O)OC[C@H]1O[C@H](C#Cc2ccccc2)C=C[C@@H]1Oc1ccc(C)cc1)=NO[C@H](C)c1cn([C@@H]2COC[C@H]2O)nn1 ?
**Result** -0.698

* * *

experiment: RPMI8226 myeloma cell viability, profiling panel, resazurin fluorescence, basal, 24 h, PK04 Diversity Set (AID 1180); conditions: higher = more signal;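 note: RPMI8826 multiple myeloma cell line at 5000 cells per well; test concentration not given here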
Decision: z-score compared against -0.7; not below it gives t, below it gives f.

Use these answered entries as a reference point.
CC[C@@H](c1ccccc1)n1c(=O)n2n(c1=O)[C@H]1[C@H](O)[C@@H]3O[C@@H]3C(=NOCc3ccccc3)[C@H]1CC2 = f
COC(=O)[C@H](C)NC(=O)CCC1CC(OC(=O)NCc2ccc3c(c2)OCO3)CC2(CCCC(COC(=O)NCc3ccccc3)O2)O1 (stereo partly drawn) = t
CO[C@H]1COC(=O)[C@H](C)COC(=O)[C@@H](OCc2ccccc2)C=C[C@@H]1C = t
CC(C)=CCCC(C)=CCON=C1C[C@@H](O)[C@@H](O)[C@@H]2[C@@H]3C(=O)N(C4CCCCC4)C(=O)[C@@H]3CC[C@H]12 = f
O=C1C[C@H](c2ccccc2)[C@H](c2ccc(Br)cc2)O1 = t
COC(=O)C(C(=O)OC)C1CCCC(=O)C1 (stereo not drawn) = t

Okay, next one:
**Query** Could you verify whether the entry CCN1C(=O)[C@H]2[C@H]3[C@H](O)[C@H](O)CC(=NOC(C)CN4CCCc5nc(C)c(C)cc54)[C@@H]3CC[C@H]2C1=O (stereo partly drawn) shows z-score of no less than -0.7?
**Result** f

Entry source: PubChem BioAssay
